Recorded T/C, one value per entry.
# System: P388 leukemia ip, CD2F1 mice, survival T/C
# ASSAY_REMARKS: NCI In Vivo Anticancer Drug Screen. Data for tumor model P388 Leukemia (intraperitoneal) in CD2F1 (CDF1) mice
# MEASUREMENT_CONDITIONS: endpoint: median survival time; dose: 400.0 mg/kg/injection; schedule: Q04DX003 (ip); vehicle: saline with Tween-80; higher = longer survival
# Description: The antitumor activity of compounds was measured in mice bearing transplantable tumors. Survival or tumor size were measured and the results are expressed as the measurement made in the treated group (T) divided by the measurement made in the vehicle treated control group (C). The tumor model used in this assay is P388 Leukemia (intraperitoneal) in CD2F1 (CDF1) mice
Inconclusive results and toxic doses are left out.
PROPERTY: T/C

>  <SMILES>
CCOc1ccc(OCC)c(NC(=O)c2ccccc2)c1

>  <RESULT>
95 % of control

$$$$
>  <SMILES>
COCCCNS(=O)(=O)c1ncnc2nc[nH]c12

>  <RESULT>
108 % of control

$$$$
>  <SMILES>
COc1cc(/C=C(\C)[N+](=O)[O-])cc(Br)c1O

>  <RESULT>
94 % of control

$$$$
>  <SMILES>
OC1(C2(O)CCCC2)CCCC1

>  <RESULT>
95 % of control

$$$$
>  <SMILES>
CC(C)CCOC(=O)CN(CC(=O)OCCC(C)C)c1ccccc1

>  <RESULT>
95 % of control

$$$$
>  <SMILES>
Cc1ccc([N+](=O)[O-])cc1NC(=O)COc1ccc(Cl)cc1

>  <RESULT>
90 % of control

$$$$
>  <SMILES>
COc1cccc(C(=O)O)c1OC

>  <RESULT>
90 % of control

$$$$
>  <SMILES>
Nc1ccccc1-n1nc2ccc3ccccc3c2n1

>  <RESULT>
95 % of control

$$$$
>  <SMILES>
CC(=O)Nc1ccc(NC(C)=O)c2c1C(=O)c1ccccc1C2=O

>  <RESULT>
100 % of control

$$$$
>  <SMILES>
C[C@]12C=CC(=O)C=C1CC[C@@H]1[C@@H]2[C@@H](O)C[C@@]2(C)[C@H]1CC[C@]2(O)C(=O)COC(=O)CCC1CCCC1

>  <RESULT>
91 % of control

$$$$
>  <SMILES>
CC1=NCCN=C(C)C1N=Nc1ccc(S(=O)(=O)N=C(N)N)cc1

>  <RESULT>
90 % of control

$$$$
>  <SMILES>
c1ccc(-c2nnc(-c3ccccc3)nn2)cc1

>  <RESULT>
93 % of control

$$$$
>  <SMILES>
Nc1ccnc(N)c1N=O

>  <RESULT>
97 % of control

$$$$

* * *

# Test system: P388 leukemia ip, CD2F1 mice, survival T/C
# ASSAY_REMARKS: NCI In Vivo Anticancer Drug Screen. Data for tumor model P388 Leukemia (intraperitoneal) in CD2F1 (CDF1) mice
# MEASUREMENT_CONDITIONS: endpoint: median survival time; dose: 240.0 mg/kg/injection; schedule: Q01DX005 (ip); vehicle: saline with Tween-80; higher = longer survival
Inconclusive results and toxic doses are left out.
The entries below come with measured T/C values attached.
PROPERTY: T/C

>  <MOLECULE>
O=c1sc2ccccc2n2cccc12

>  <MEASURED_TARGET>
P388 leukemia ip, CD2F1 mice, survival T/C

>  <RESULT>
92 % of control

$$$$
>  <MOLECULE>
c1ccc2c(-c3cc(-c4cc(-c5cccc6ccccc56)on4)no3)cccc2c1

>  <MEASURED_TARGET>
P388 leukemia ip, CD2F1 mice, survival T/C

>  <RESULT>
100 % of control

$$$$
>  <MOLECULE>
COc1ccc(OC)c(NC(=O)CCCC(=O)C(C#N)c2ccccc2C)c1 (stereo unspecified)

>  <MEASURED_TARGET>
P388 leukemia ip, CD2F1 mice, survival T/C

>  <RESULT>
104 % of control

$$$$
>  <MOLECULE>
Cc1c2c(c(C)c3c1C(=O)c1cc4c(cc1C3=O)OCO4)OCO2

>  <MEASURED_TARGET>
P388 leukemia ip, CD2F1 mice, survival T/C

>  <RESULT>
102 % of control

$$$$
>  <MOLECULE>
CNC(=O)C1CCC(=O)N1Cc1c[nH]c2ccccc12 (stereo unspecified)

>  <MEASURED_TARGET>
P388 leukemia ip, CD2F1 mice, survival T/C

>  <RESULT>
92 % of control

$$$$
>  <MOLECULE>
Cc1cc(C)nc(/C=C/c2ccc(/C=C/c3cc(C)cc(C)n3)cc2)c1

>  <MEASURED_TARGET>
P388 leukemia ip, CD2F1 mice, survival T/C

>  <RESULT>
92 % of control

$$$$
>  <MOLECULE>
N=c1c2ncn3c(=O)n(-c4ccccc4)c(nc(=O)n1-c1ccccc1)c23

>  <MEASURED_TARGET>
P388 leukemia ip, CD2F1 mice, survival T/C

>  <RESULT>
98 % of control

$$$$
>  <MOLECULE>
Cc1csc2nc(-c3ccccc3)c(/C=N/NC(=O)CN(C)C)n12

>  <MEASURED_TARGET>
P388 leukemia ip, CD2F1 mice, survival T/C

>  <RESULT>
99 % of control

$$$$
>  <MOLECULE>
CN1CCOP(=O)(Oc2ccccc2)N1 (stereo unspecified)

>  <MEASURED_TARGET>
P388 leukemia ip, CD2F1 mice, survival T/C

>  <RESULT>
100 % of control

$$$$
>  <MOLECULE>
O=C(O)CCC12CCC(=O)N1Cc1ccccc1C2=O (stereo unspecified)

>  <MEASURED_TARGET>
P388 leukemia ip, CD2F1 mice, survival T/C

>  <RESULT>
109 % of control

$$$$
>  <MOLECULE>
CCOC(=O)CCCCCO[Si](c1ccccc1)(c1ccccc1)C(C)(C)C

>  <MEASURED_TARGET>
P388 leukemia ip, CD2F1 mice, survival T/C

>  <RESULT>
88 % of control

$$$$

* * *

# System: P388 leukemia ip, CD2F1 mice, survival T/C
# ASSAY_REMARKS: NCI In Vivo Anticancer Drug Screen. Data for tumor model P388 Leukemia (intraperitoneal) in CD2F1 (CDF1) mice
# MEASUREMENT_CONDITIONS: endpoint: median survival time; dose: 100.0 mg/kg/injection; schedule: Q01DX001 (ip); vehicle: saline; higher = longer survival
Inconclusive results and toxic doses are left out.
Here, each record is paired with measured T/C data.

>  <MOLECULE>
CC(C)=NNC(=O)C1CCN1Cc1ccccc1 (stereo unspecified)

>  <T/C>
106 % of control

$$$$
>  <MOLECULE>
COC(=O)C1=CCN2CCCC12C (stereo unspecified)

>  <T/C>
105 % of control

$$$$
>  <MOLECULE>
CC(Cl)CN1CC(C)OC1=O (stereo unspecified)

>  <T/C>
108 % of control

$$$$
>  <MOLECULE>
O=S(=O)(O)C1CCC(O)C2[N-]CCCC21.O=S(=O)(O)C1CCC(O)C2[N-]CCCC21.[Ni+2] (stereo unspecified)

>  <T/C>
110 % of control

$$$$
>  <MOLECULE>
CCOP(=O)(Cc1cc(=O)oc2cc(OC)ccc12)OCC

>  <T/C>
101 % of control

$$$$
>  <MOLECULE>
C=C1CC2(CCCC3(C)CCC(C(C)C)CC32C)OC1=O (stereo unspecified)

>  <T/C>
101 % of control

$$$$

* * *

# System: P388 leukemia ip, CD2F1 mice, survival T/C
# ASSAY_REMARKS: NCI In Vivo Anticancer Drug Screen. Data for tumor model P388 Leukemia (intraperitoneal) in CD2F1 (CDF1) mice
# MEASUREMENT_CONDITIONS: endpoint: median survival time; dose: 50.0 mg/kg/injection; schedule: Q01DX005 (ip); vehicle: saline; higher = longer survival
Inconclusive results and toxic doses are left out.
Each entry below lists one item and its recorded T/C value.

>  <COMPOUND>
COc1ccc(CCN2C(=O)CC(CC3=NCCc4cc(OC)c(OC)cc43)CC2=O)cc1OC

>  <T/C>
103 % of control

$$$$
>  <COMPOUND>
CC(C)C(N)C(=O)NC(C(=O)NS(=O)(=O)c1ccc(N)cc1)C(C)C (stereo unspecified)

>  <T/C>
99 % of control

$$$$
>  <COMPOUND>
NC(CSCCCS(=O)(=O)O)C(=O)O (stereo unspecified)

>  <T/C>
101 % of control

$$$$
>  <COMPOUND>
CC(C)(C)OC(=O)N1CCCC1C(=O)N1CCCC1C(=O)Oc1ccccc1 (stereo unspecified)

>  <T/C>
100 % of control

$$$$
>  <COMPOUND>
CNc1nnnn1C

>  <T/C>
98 % of control

$$$$
>  <COMPOUND>
CCOC(=O)CON1C(=O)CCC1=O

>  <T/C>
102 % of control

$$$$
>  <COMPOUND>
CC(O)C1CCCCN1 (stereo unspecified)

>  <T/C>
101 % of control

$$$$
>  <COMPOUND>
CCN(CCCl)/N=N/c1nc2c([nH]1)c(=O)n(C)c(=O)n2C

>  <T/C>
100 % of control

$$$$
>  <COMPOUND>
COC(=O)C1CC(C)N1C(C)C (stereo unspecified)

>  <T/C>
95 % of control

$$$$
>  <COMPOUND>
NC(=S)N/N=C/c1ncccc1O

>  <T/C>
155 % of control

$$$$
>  <COMPOUND>
C1CN2CCN3CCCN4CCN(C1)C2C34 (stereo unspecified)

>  <T/C>
93 % of control

$$$$
